biological target: MMP-1 (Homo sapiens, UniProt P03956); assay: MMP-1 inhibition (thiopeptide or fluorescent peptide substrate assay); format: biochemical; settings: concentration given as (10), unit not given
Sequence (P03956 100-469): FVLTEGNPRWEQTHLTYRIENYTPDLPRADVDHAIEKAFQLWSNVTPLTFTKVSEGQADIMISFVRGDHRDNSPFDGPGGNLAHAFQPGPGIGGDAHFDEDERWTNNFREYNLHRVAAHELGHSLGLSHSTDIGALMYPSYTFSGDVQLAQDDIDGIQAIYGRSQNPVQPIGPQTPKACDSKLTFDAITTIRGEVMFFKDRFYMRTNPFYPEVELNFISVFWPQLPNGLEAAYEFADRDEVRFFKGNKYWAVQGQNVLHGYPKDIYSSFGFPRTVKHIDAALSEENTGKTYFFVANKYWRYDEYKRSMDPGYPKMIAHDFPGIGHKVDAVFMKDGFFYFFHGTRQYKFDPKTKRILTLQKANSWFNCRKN
parameter_measured: MMP-1 % inhibition

Past entries and their recorded results:
{"smiles_data": "Cc1cccc(C(=O)NO)c1N(Cc1cccnc1)S(=O)(=O)c1ccc(-c2ccc(C(F)(F)F)cc2)cc1", "MMP-1 % inhibition": "47%(10)"}
{"smiles_data": "COc1ccc(S(=O)(=O)N(Cc2cccnc2)c2c(C(=O)O)cccc2C(=O)NO)cc1", "MMP-1 % inhibition": "56%(10)"}
{"smiles_data": "CCCCCCCCCCCCc1cc(C)c(N(C)S(=O)(=O)c2ccc(OC)cc2)c(C(=O)NO)c1", "MMP-1 % inhibition": "14%(10)"}
{"smiles_data": "Cc1cccc(C(=O)NO)c1N(Cc1cccnc1)S(=O)(=O)c1ccc(-c2ccc3c(c2)OCO3)cc1", "MMP-1 % inhibition": "37%(10)"}

Prompt: I have this molecule here, `Cc1cccc(C(=O)NO)c1N(Cc1cccnc1)S(=O)(=O)c1ccc(-c2cccs2)cc1` , and I need its recorded MMP-1 % inhibition.
Completion: 69%(10)

Prompt: I have this molecule here, `COc1ccc(S(=O)(=O)N(CCO)c2c(C)cccc2C(=O)NO)cc1` , and I need its recorded MMP-1 % inhibition.
Completion: 66%(10)

Prompt: I have this molecule here, `CCCCCCCCCCC#Cc1cc(C)c(N(C)S(=O)(=O)c2ccc(OC)cc2)c(C(=O)NO)c1` , and I need its recorded MMP-1 % inhibition.
Completion: 25%(10)

Prompt: I have this molecule here, `Cc1cccc(C(=O)NO)c1N(Cc1cccnc1)S(=O)(=O)c1ccc(-c2cc3ccccc3s2)cc1` , and I need its recorded MMP-1 % inhibition.
Completion: 29%(10)

Prompt: I have this molecule here, `COc1ccc(-c2ccc(S(=O)(=O)N(Cc3cccnc3)c3c(C)cccc3C(=O)NO)cc2)c(OC)c1` , and I need its recorded MMP-1 % inhibition.
Completion: 32%(10)
